This collection of values is drawn from the supplement of paper PMC10567573.

B1: LCOR (parent)
chain: PCAGSTSLSHSPGCSSTQGNGRPG

# Variants of: B1
# assay_info: protein stability index of a GFP-peptide fusion (GPS, HEK-293T) (PSI 1-6); higher = more stable;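 also: lentivirally expressed fusions sorted by FACS into six bins by GFP to DsRed ratio, PSI derived from sequencing read proportions per bin multiplied by bin number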
# experimental_parameters: c terminus: a fixed tail appended
readout: protein stability index
Keep the answer to the number alone.

>  <sequence_content>
PCAGSTSFSHSPGCSSTQGNGRPG

>  <protein stability index>
3.91

$$$$
>  <sequence_content>
PCAGSTSLSHSPGCSSTQGNERPG

>  <protein stability index>
3.96

$$$$

Which protein stability index is reported for this variant? "PCAGSTSLSHSPGCSPTQGNGRPG"
4.1
